Source: patent US10308639B2

# TEST_TARGET: PI3Kγ (Homo sapiens, UniProt P48736)
# Construct: made in house
# Sequence (P48736 whole entry): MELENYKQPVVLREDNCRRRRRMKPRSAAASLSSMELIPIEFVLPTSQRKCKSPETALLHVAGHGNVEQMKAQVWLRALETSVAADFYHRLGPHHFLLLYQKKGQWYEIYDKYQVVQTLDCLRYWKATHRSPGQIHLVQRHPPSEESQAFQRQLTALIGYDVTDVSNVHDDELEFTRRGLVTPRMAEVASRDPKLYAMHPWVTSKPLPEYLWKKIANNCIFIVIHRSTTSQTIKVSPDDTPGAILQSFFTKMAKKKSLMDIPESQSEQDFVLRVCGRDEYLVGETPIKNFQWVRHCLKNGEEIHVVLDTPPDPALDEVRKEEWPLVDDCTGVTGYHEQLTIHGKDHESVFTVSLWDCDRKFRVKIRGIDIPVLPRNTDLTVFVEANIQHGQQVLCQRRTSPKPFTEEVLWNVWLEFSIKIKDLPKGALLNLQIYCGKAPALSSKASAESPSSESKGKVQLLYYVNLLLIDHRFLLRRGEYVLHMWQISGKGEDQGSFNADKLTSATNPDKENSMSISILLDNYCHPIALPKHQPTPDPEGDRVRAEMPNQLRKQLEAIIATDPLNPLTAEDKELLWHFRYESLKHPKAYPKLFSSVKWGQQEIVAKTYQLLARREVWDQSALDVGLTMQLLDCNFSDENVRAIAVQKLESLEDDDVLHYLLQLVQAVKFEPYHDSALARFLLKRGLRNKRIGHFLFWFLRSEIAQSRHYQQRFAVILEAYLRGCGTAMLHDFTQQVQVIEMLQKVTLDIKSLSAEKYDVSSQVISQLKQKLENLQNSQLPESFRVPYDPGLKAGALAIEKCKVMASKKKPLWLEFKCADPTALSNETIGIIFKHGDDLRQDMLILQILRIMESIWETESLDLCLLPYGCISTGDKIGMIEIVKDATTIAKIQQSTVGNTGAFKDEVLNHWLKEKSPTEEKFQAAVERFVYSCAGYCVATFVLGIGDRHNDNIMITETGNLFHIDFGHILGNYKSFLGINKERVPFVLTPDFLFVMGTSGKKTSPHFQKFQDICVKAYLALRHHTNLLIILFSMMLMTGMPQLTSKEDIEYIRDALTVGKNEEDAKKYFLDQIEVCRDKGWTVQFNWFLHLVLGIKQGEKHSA
# PROCEDURE_SUMMARY: TR-FRET enzymatic activity assay, PI3Kγ
# Assay type: biochemical
# CONDITIONS: Table 2a; same assay; read-out: PI3Kγ IC50
pIC50: −log10 of the molar value.
READOUT_KIND: pIC50

Solved cases below.
C[C@H](Nc1nc(N)nc(N)c1C#N)c1nc2cccc(C(F)F)c2c(=O)n1-c1cc[nH]n1; 7.09
C[C@H](Nc1nc(N)nc(N)c1C#N)c1nc2ccc(F)c(Cl)c2c(=O)n1-c1cc[nH]n1; 6.66
N#Cc1c(N)nc(N)nc1N[C@H](c1nc2cccc(C(F)(F)F)c2c(=O)n1-c1cc[nH]n1)C1CC1; 6.19
CCC[C@H](Nc1nc(N)nc(N)c1C#N)c1nc2c(Cl)ccc(Cl)c2c(=O)n1-c1cn[nH]c1; 6.11
N#Cc1c(N)nc(N)nc1N[C@H](c1nc2c(Cl)cc(F)cc2c(=O)n1-c1c[nH]cn1)C1CC1; 6.21

(P) C[C@@H](Nc1nc(N)nc(N)c1C#N)c1nc2cccc(C(F)F)c2c(=O)n1-c1cc[nH]n1
(Q) N#Cc1c(N[C@H](c2nc3c(Cl)cc(F)cc3c(=O)n2-c2cn[nH]c2)C2CC2)nc(N)nc1C(F)F
(R) C[C@H](Nc1nc(N)nc(N)c1C#N)c1nc2ccc(F)c(Cl)c2c(=O)n1-c1cn[nH]c1
(S) C[C@H](Nc1nc(N)nc(C(F)F)c1C#N)c1nc2c(Cl)cccc2c(=O)n1-c1cc[nH]n1
Challenge: Arrange items by their pIC50 values in increasing order. Returns: the labels arranged in the requested order.
Response given: P, S, Q, R
(P: 5.14, S: 5.40, Q: 5.82, R: 7.15)

(1) C[C@H](Nc1nc(N)nc(N)c1Cl)c1nc2ccc(Cl)c(C(F)F)c2c(=O)n1-c1cc[nH]n1
(2) Cc1n[nH]cc1-n1c([C@@H](Nc2nc(N)nc(N)c2C#N)C2CC2)nc2c(Cl)cc(F)cc2c1=O
Challenge: Compare 1 and 2 by numeric pIC50 and name the larger one. Record your answer as the label of the chosen record.
Response given: 2
(2: 5.66, 1: 5.30)

(a) Nc1nc(N)c(Cl)c(N[C@H](c2nc3ccc(F)c(Cl)c3c(=O)n2-c2cc[nH]n2)C2CC2)n1
(b) C[C@H](Nc1nc(N)nc(N)c1C#N)c1nc2c(Cl)cc(F)cc2c(=O)n1-c1c[nH]cn1
(c) CCC[C@H](Nc1nc(N)nc(N)c1C#N)c1nc2ccc(F)c(Cl)c2c(=O)n1-c1cc[nH]n1
(d) CCC[C@H](Nc1nc(N)nc(N)c1Cl)c1nc2cccc(Cl)c2c(=O)n1-c1cn[nH]c1
Challenge: Reorder: pIC50, max to min. Please list the labels according to the requested order.
Response given: b, c, d, a
(b: 6.48, c: 6.05, d: 5.69, a: 5.28)

----------
# TEST_TARGET: PI3Kδ (Homo sapiens, UniProt O00329)
# Construct: made in house
# Sequence (O00329 whole entry): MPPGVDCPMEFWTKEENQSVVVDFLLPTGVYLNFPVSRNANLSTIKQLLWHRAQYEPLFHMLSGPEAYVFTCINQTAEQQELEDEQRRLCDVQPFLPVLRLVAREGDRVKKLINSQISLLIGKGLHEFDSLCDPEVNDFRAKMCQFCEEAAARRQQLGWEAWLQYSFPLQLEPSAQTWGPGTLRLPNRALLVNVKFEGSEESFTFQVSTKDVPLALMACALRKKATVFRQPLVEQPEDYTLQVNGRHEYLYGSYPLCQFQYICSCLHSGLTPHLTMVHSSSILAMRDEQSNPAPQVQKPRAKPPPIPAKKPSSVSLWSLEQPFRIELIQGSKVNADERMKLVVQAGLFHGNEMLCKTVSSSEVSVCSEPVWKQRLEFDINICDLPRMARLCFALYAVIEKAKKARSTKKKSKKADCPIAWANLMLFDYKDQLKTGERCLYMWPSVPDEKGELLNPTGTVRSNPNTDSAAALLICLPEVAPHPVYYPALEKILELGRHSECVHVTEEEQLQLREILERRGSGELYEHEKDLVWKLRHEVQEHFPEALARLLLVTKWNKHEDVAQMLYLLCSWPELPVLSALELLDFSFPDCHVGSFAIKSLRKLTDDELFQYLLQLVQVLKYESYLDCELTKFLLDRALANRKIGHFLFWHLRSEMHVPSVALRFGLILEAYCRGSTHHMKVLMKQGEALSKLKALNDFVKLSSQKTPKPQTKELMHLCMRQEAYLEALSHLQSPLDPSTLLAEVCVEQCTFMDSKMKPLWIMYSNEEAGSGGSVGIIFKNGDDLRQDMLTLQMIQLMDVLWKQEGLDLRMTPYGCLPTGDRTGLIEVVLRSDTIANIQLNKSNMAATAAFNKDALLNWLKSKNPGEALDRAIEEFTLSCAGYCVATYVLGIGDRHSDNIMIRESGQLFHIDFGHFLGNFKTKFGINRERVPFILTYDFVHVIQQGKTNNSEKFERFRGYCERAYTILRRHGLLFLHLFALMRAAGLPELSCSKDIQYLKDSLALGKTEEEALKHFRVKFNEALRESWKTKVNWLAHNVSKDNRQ
# Sequence (P27986 whole entry partner): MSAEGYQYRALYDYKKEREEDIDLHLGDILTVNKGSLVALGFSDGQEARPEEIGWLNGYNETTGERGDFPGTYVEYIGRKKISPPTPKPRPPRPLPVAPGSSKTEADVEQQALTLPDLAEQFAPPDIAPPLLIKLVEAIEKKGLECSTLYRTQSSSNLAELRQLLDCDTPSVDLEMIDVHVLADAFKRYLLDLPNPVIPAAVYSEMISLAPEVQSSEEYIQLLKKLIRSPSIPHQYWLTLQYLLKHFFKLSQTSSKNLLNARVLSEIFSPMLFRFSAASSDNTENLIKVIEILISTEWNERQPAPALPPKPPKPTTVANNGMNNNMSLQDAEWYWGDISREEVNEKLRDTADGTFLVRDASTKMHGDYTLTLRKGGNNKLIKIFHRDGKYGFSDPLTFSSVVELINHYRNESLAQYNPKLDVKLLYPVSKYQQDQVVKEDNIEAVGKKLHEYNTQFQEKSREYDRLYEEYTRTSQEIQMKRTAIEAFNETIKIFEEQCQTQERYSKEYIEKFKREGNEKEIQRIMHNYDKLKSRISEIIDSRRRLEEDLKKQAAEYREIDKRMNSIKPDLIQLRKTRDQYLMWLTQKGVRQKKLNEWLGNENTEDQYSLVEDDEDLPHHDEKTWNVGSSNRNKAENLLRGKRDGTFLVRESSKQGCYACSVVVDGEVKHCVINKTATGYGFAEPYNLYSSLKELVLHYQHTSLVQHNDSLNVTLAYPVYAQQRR
# PROCEDURE_SUMMARY: TR-FRET enzymatic activity assay, PI3Kδ
# Format: biochemical
# CONDITIONS: Table 2; TR-FRET, 2x Km ATP, 30 minutes at 25° C.
pIC50: −log10 of the molar value.
READOUT_KIND: pIC50

C[C@H](Nc1ncnc2scnc12)c1nc2cccc(Cl)c2c(=O)n1-c1n[nH]cc1Br [Compound 104]; 8.70
CC[C@H](Nc1nc(F)nc2[nH]cnc12)c1nc2c(Cl)ccc(Cl)c2c(=O)n1-c1cc[nH]n1 [Compound 53]; 7.89
C[C@H](Nc1nc(N)nc(N)c1Cl)c1nc2c(F)ccc(Cl)c2c(=O)n1-c1cc[nH]n1 [Compound 67]; 8.52
CC[C@H](Nc1nc(N)nc(N)c1Cl)c1nc2c(C#N)cccc2c(=O)n1-c1cc[nH]n1 [Compound 78]; 7.28
CC(C)Cc1cc(-n2c([C@H](C)Nc3ncnc(N)c3C#N)nc3cccc(Cl)c3c2=O)n[nH]1 [Compound 4]; 8.15

(1) O=c1c2c(Cl)cccc2nc([C@H](COCc2ccccc2)Nc2ncnc3scnc23)n1-c1cn[nH]c1 [Compound 47]
(2) CC[C@H](NC(=O)c1nccnc1N)c1nc2c(Cl)ccc(Cl)c2c(=O)n1-c1cn[nH]c1 [Compound 122]
Challenge: Identify the entry with the smaller pIC50: 1 or 2 . Answer with the label corresponding to your selection.
Response given: 2
(2: 6.70, 1: 7.96)
